src = the supplement of paper PMC11061612

- Tested on: IST-MES1 (Mesothelioma)
- MEASUREMENT_PROTOCOL: Bliss excess, mean over the matrix (fraction); higher = more synergy;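 also: after 72 h of two-drug dosing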
ASSAY_METRIC: Bliss excess

I need Bliss excess for every entry listed below, if you could help.
1. CN(CCO)CC[C@H](CSc1ccccc1)Nc1ccc(S(=O)(=O)NC(=O)c2ccc(N3CCC([C@@H](O)c4ccccc4-c4ccc(Cl)cc4)CC3)cc2)cc1S(=O)(=O)C(F)(F)F [AZD4320] + C1CN(CCC1(C(=O)N[C@@H](CCO)C2=CC=C(C=C2)Cl)N)C3=NC=NC4=C3C=CN4 [Capivasertib] (first compound max 1 µM, 7x7, partner max 3 µM)
2. COc1nnc2ccc(N3CCC(c4ccc(OCCN5CCN(C)C(=O)[C@H]5C)cc4)CC3)nn12 [AZD5153] + CC1(C)CCC(CN2CCN(c3ccc(C(=O)NS(=O)(=O)c4ccc(NCC5CCOCC5)c([N+](=O)[O-])c4)c(Oc4cnc5[nH]ccc5c4)c3)CC2)=C(c2ccc(Cl)cc2)C1 [Venetoclax] (first compound max 1 µM, 7x7, partner max 1 µM)
3. C[C@@H]1COCCN1c1cc(C2([S@](C)(=N)=O)CC2)nc(-c2ccnc3[nH]ccc23)n1 [AZD6738] + O=C(c1cc(Cc2n[nH]c(=O)c3ccccc23)ccc1F)N1CCN(C(=O)C2CC2)CC1 [Olaparib] (first compound max 10 µM, 7x7, partner max 10 µM)
4. CN(CCO)CC[C@H](CSc1ccccc1)Nc1ccc(S(=O)(=O)NC(=O)c2ccc(N3CCC([C@@H](O)c4ccccc4-c4ccc(Cl)cc4)CC3)cc2)cc1S(=O)(=O)C(F)(F)F [AZD4320] + C=CCn1c(=O)c2cnc(Nc3ccc(N4CCN(C)CC4)cc3)nc2n1-c1cccc(C(C)(C)O)n1 [AZD1775] (first compound max 1 µM, partner max 1 µM)
5. NC1(C(=O)N[C@@H](CCO)c2ccc(Cl)cc2)CCN(c2ncnc3[nH]ccc23)CC1 [Capivasertib] + CC(C)n1c(=O)n(C)c2cnc3cc(F)c(-c4ccc(OCCCN5CCCCC5)nc4)cc3c21 [AZD1390] (first compound max 10 µM, 7x7, partner max 0.3 µM)
6. CC1(C)CCC(CN2CCN(c3ccc(C(=O)NS(=O)(=O)c4ccc(NCC5CCOCC5)c([N+](=O)[O-])c4)c(Oc4cnc5[nH]ccc5c4)c3)CC2)=C(c2ccc(Cl)cc2)C1 [Venetoclax] + Cn1cnc2c(F)c(Nc3ccc(Br)cc3Cl)c(C(=O)NOCCO)cc21 [Selumetinib] (first compound max 1 µM, 7x7, partner max 3 µM)
7. Cc1c2c(nn1C)CSCc1cc(n(C)n1)CSc1cc(c3ccccc3c1)OCCCc1c(C(=O)O)n(C)c3c-2c(Cl)ccc13 [AZD5991] + CN(C)CCCOc1ccc(-c2ccc3ncc4c(c3c2)n(C2CCOCC2)c(=O)n4C)cn1 [AZD0156] (first compound max 1 µM, 7x7, partner max 1 µM)

# output
1: -0.0371; 2: -0.0237; 3: 0.0228; 4: -0.0274; 5: -0.0553; 6: -0.0381; 7: 0.0029

I need Bliss excess for every entry listed below, if you could help.
1. C[C@@H](Oc1cc(-c2cnn(C3CCNCC3)c2)cnc1N)c1c(Cl)ccc(F)c1Cl [Crizotinib] + Cn1cnc2c(F)c(Nc3ccc(Br)cc3Cl)c(C(=O)NOCCO)cc21 [Selumetinib] (first compound max 10 µM, 7x7, partner max 10 µM)
2. CC1(C)CCC(CN2CCN(c3ccc(C(=O)NS(=O)(=O)c4ccc(NCC5CCOCC5)c([N+](=O)[O-])c4)c(Oc4cnc5[nH]ccc5c4)c3)CC2)=C(c2ccc(Cl)cc2)C1 [Venetoclax] + C[C@@H]1COCCN1C2=NC(=NC(=C2)C3(CC3)[S@](=N)(=O)C)C4=C5C=CNC5=NC=C4 [AZD6738] (first compound max 1 µM, 7x7, partner max 10 µM)

# output
1: -0.0311; 2: -0.0101

I need Bliss excess for every entry listed below, if you could help.
1. C[C@@H](Oc1cc(-c2cnn(C3CCNCC3)c2)cnc1N)c1c(Cl)ccc(F)c1Cl [Crizotinib] + CC1=C(C(=CC=C1)Cl)NC(=O)C2=CN=C(S2)NC3=CC(=NC(=N3)C)N4CCN(CC4)CCO [Dasatinib] (first compound max 10 µM, 7x7, partner max 2 µM)
2. COc1nnc2ccc(N3CCC(c4ccc(OCCN5CCN(C)C(=O)[C@H]5C)cc4)CC3)nn12 [AZD5153] + CCN(CCO)CCCOc1ccc2c(Nc3cc(CC(=O)Nc4cccc(F)c4)[nH]n3)ncnc2c1 [AZD2811] (first compound max 1 µM, 7x7, partner max 1 µM)
3. COc1cccc2c1C(=O)c1c(O)c3c(c(O)c1C2=O)C[C@@](O)(C(=O)CO)C[C@@H]3O[C@H]1C[C@H](N)[C@H](O)[C@H](C)O1 [Doxorubicin] + Cc1cc2ncnn2cc1Nc1ncc2c(n1)n(C1CCOCC1)c(=O)n2C [AZD7648] (first compound max 1 µM, 7x7, partner max 10 µM)
4. CC(=O)Nc1cccc(-n2c(=O)n(C3CC3)c(=O)c3c(Nc4ccc(I)cc4F)n(C)c(=O)c(C)c32)c1 [Trametinib] + Cc1nc(-c2cn3c(n2)-c2ccc(-c4cnn(C(C)(C)C(N)=O)c4)cc2OCC3)n(C(C)C)n1 [Taselisib] (first compound max 1 µM, 7x7, partner max 10 µM)

# output
1: -0.0152; 2: -0.0132; 3: 0.0455; 4: 0.0469

* * *

Exercise: for every item that follows, state its recorded Bliss excess.
- System: GB-1 (Glioblastoma)
- MEASUREMENT_PROTOCOL: Bliss excess, mean over the matrix (fraction); higher = more synergy

Worked examples, 6 compounds total:
COMPOUND	Bliss excess
CN(CCO)CC[C@H](CSc1ccccc1)Nc1ccc(S(=O)(=O)NC(=O)c2ccc(N3CCC([C@@H](O)c4ccccc4-c4ccc(Cl)cc4)CC3)cc2)cc1S(=O)(=O)C(F)(F)F [AZD4320] + CN(C)CCCOc1ccc(-c2ccc3ncc4c(c3c2)n(C2CCOCC2)c(=O)n4C)cn1 [AZD0156] (first compound max 1 µM, 7x7, partner max 1 µM)	-0.0272
CN(CCO)CC[C@H](CSc1ccccc1)Nc1ccc(S(=O)(=O)NC(=O)c2ccc(N3CCC([C@@H](O)c4ccccc4-c4ccc(Cl)cc4)CC3)cc2)cc1S(=O)(=O)C(F)(F)F [AZD4320] + C[C@@H]1COCCN1C2=NC(=NC(=C2)C3(CC3)[S@](=N)(=O)C)C4=C5C=CNC5=NC=C4 [AZD6738] (first compound max 1 µM, 7x7, partner max 10 µM)	-0.0314
Cc1cc2ncnn2cc1Nc1ncc2c(n1)n(C1CCOCC1)c(=O)n2C [AZD7648] + C[C@@H]1COCCN1C2=NC(=NC(=C2)C3(CC3)[S@](=N)(=O)C)C4=C5C=CNC5=NC=C4 [AZD6738] (first compound max 10 µM, 7x7, partner max 10 µM)	-0.017
CC1(C)CCC(CN2CCN(c3ccc(C(=O)NS(=O)(=O)c4ccc(NCC5CCOCC5)c([N+](=O)[O-])c4)c(Oc4cnc5[nH]ccc5c4)c3)CC2)=C(c2ccc(Cl)cc2)C1 [Venetoclax] + C[C@@H]1COCCN1C2=NC(=NC(=C2)C3(CC3)[S@](=N)(=O)C)C4=C5C=CNC5=NC=C4 [AZD6738] (first compound max 1 µM, 7x7, partner max 10 µM)	-0.0281
Cn1cnc2c(F)c(Nc3ccc(Br)cc3Cl)c(C(=O)NOCCO)cc21 [Selumetinib] + C=CCn1c(=O)c2cnc(Nc3ccc(N4CCN(C)CC4)cc3)nc2n1-c1cccc(C(C)(C)O)n1 [AZD1775] (first compound max 10 µM, partner max 1 µM)	-0.0522
CN(C)CCCOc1ccc(-c2ccc3ncc4c(c3c2)n(C2CCOCC2)c(=O)n4C)cn1 [AZD0156] + O=C(c1cc(Cc2n[nH]c(=O)c3ccccc23)ccc1F)N1CCN(C(=O)C2CC2)CC1 [Olaparib] (first compound max 3 µM, partner max 3 µM)	0.014

Next compound, Bliss excess to be filled in.
Just so you know, measured Bliss excess for Cc1nc(Nc2ncc(C(=O)Nc3c(C)cccc3Cl)s2)cc(N2CCN(CCO)CC2)n1 [Dasatinib] + CC(=O)Nc1cccc(-n2c(=O)n(C3CC3)c(=O)c3c(Nc4ccc(I)cc4F)n(C)c(=O)c(C)c32)c1 [Trametinib] (first compound max 2 µM, 7x7, partner max 1 µM) came out at 0.121

* * *

Exercise: for every item that follows, state its recorded Bliss excess.
- Tested on: LN-229 (Glioblastoma)
- MEASUREMENT_PROTOCOL: Bliss excess, mean over the matrix (fraction); higher = more synergy
Give bare numbers.

Worked examples, 2 compounds total:
COMPOUND	MEASUREMENT
CC(=O)c1c(C)c2cnc(Nc3ccc(N4CCNCC4)cn3)nc2n(C2CCCC2)c1=O [Palbociclib] + CC1(C)CCC(CN2CCN(c3ccc(C(=O)NS(=O)(=O)c4ccc(NCC5CCOCC5)c([N+](=O)[O-])c4)c(Oc4cnc5[nH]ccc5c4)c3)CC2)=C(c2ccc(Cl)cc2)C1 [Venetoclax] (first compound max 10 µM, 7x7, partner max 1 µM)	-0.0652
C=CCn1c(=O)c2cnc(Nc3ccc(N4CCN(C)CC4)cc3)nc2n1-c1cccc(C(C)(C)O)n1 [AZD1775] + O=C(c1cc(Cc2n[nH]c(=O)c3ccccc23)ccc1F)N1CCN(C(=O)C2CC2)CC1 [Olaparib] (first compound max 1 µM, partner max 10 µM)	-0.0851

Next compound, Bliss excess to be filled in.
Just so you know, measured Bliss excess for COc1nnc2ccc(N3CCC(c4ccc(OCCN5CCN(C)C(=O)[C@H]5C)cc4)CC3)nn12 [AZD5153] + CC1(C)CCC(CN2CCN(c3ccc(C(=O)NS(=O)(=O)c4ccc(NCC5CCOCC5)c([N+](=O)[O-])c4)c(Oc4cnc5[nH]ccc5c4)c3)CC2)=C(c2ccc(Cl)cc2)C1 [Venetoclax] (first compound max 1 µM, 7x7, partner max 1 µM) came out at -0.0496
